The reported numbers originate from patent US20250340563A1.

# target.entity: NLRP3 inflammasome (Homo sapiens, UniProt Q96P20)
# Sequence (Q96P20 whole entry): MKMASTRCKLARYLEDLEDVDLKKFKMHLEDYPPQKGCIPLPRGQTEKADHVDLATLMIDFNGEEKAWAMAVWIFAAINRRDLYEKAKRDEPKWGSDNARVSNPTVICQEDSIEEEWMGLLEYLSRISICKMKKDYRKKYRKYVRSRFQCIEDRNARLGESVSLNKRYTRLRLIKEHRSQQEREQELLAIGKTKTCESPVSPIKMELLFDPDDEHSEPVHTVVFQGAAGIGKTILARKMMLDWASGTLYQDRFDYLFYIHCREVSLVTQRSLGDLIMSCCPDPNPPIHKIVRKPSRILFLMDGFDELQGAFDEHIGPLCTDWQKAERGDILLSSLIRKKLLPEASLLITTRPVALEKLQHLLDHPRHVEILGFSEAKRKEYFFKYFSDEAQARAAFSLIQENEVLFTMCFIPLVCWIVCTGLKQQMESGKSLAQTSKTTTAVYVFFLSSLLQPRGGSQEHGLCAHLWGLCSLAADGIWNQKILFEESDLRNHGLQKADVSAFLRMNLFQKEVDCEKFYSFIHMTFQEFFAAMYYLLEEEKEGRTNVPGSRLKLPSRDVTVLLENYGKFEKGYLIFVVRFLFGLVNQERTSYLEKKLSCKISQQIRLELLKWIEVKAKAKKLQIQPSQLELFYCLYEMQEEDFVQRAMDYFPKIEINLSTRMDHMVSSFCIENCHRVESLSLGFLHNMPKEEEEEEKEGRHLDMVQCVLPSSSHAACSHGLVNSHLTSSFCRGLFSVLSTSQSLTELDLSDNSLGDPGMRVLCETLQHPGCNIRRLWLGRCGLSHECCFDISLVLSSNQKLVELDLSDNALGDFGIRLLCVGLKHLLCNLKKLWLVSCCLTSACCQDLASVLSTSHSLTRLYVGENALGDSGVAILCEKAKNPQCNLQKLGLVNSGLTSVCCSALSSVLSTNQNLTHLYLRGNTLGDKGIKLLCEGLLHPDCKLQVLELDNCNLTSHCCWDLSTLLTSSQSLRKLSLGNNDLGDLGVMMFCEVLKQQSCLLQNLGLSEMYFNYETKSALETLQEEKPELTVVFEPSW
# assay.explanation: IL-1β assay in IFN-γ-differentiated, LPS-primed, ATP-activated THP-1 cells (ELISA)
# settings: 50 ng/mL LPS priming, 2.5 mM ATP activation, 2 hours
assay.readout: IC50 (nM)

molecule: Clc1ccc(-c2nnc(NC3CCCN(C4CCCC4)C3)c3ccccc23)cc1 (stereo not drawn)
target.entity: NLRP3 inflammasome (Homo sapiens, UniProt Q96P20)
IC50 (nM): 56
//
molecule: C[C@]1(O)C[C@@H](Nc2nnc(-c3ccc(Cl)cc3)c3ccccc23)C1
target.entity: NLRP3 inflammasome (Homo sapiens, UniProt Q96P20)
IC50 (nM): 334
//
molecule: CN1CCCC(Nc2nnc(-c3ccc(Cl)cc3Cl)c3cnccc23)C1 (stereo not drawn)
target.entity: NLRP3 inflammasome (Homo sapiens, UniProt Q96P20)
IC50 (nM): 2400
//
molecule: COc1ccc(-c2nnc(Nc3cccc(O)c3)c3ncccc23)cc1
target.entity: NLRP3 inflammasome (Homo sapiens, UniProt Q96P20)
IC50 (nM): 4380
//
molecule: COC1CC(N2CCCC(Nc3nnc(-c4ccc(Cl)cc4)c4ccncc34)C2)C1 (stereo not drawn)
target.entity: NLRP3 inflammasome (Homo sapiens, UniProt Q96P20)
IC50 (nM): 708
//
molecule: F[C@@H]1C[C@@H](Nc2nnc(-c3ccc(Cl)cc3)c3ccccc23)CN(C2CC2)C1
target.entity: NLRP3 inflammasome (Homo sapiens, UniProt Q96P20)
IC50 (nM): 1200

A. COc1ccc(-c2nnc(N[C@@H]3CCCN(C)C3)c3c(C)cccc23)cc1
B. COc1ccc(-c2nnc(N[C@@H]3CCCN(C4CC4)C3)c3c2CCOC3)cc1
Input pair: A , B . Output: entry with lower IC50. // output: label of the selected item
B
